So I've got a bunch of compounds here, and I need their MIC values.
System: AABA1060 (clinical isolate of Acinetobacter baumannii)
assay: MIC broth microdilution, AABA1060
Assay type: cell-based
experimental.context: Acinetobacter baumannii, read-out: MIC AABA1060

C[C@@H](N)[C@H](NC(=O)c1ccc(C#Cc2ccc(CN3CCC(O)C3)cc2)cc1)C(=O)NO (stereo partly shown) = 16 to 64 µg/mL

Kindly give each listed record's MIC.
1. CC(C)(N)[C@H](NC(=O)c1ccc(C#CC#Cc2cccs2)cc1)C(=O)NO
2. C[C@@H](NC(=O)CNC1CC1)[C@H](NC(=O)c1ccc(C#Cc2ccc(CO)cc2)cc1)C(=O)NO
3. NC[C@H](NC(=O)c1ccc(C#C/C=C/c2ccc(CN3CCOCC3)cc2)cc1)C(=O)NO
4. C[C@@H](O)[C@H](NC(=O)c1ccc(C#CC#Cc2ccc(CNC3CC3)cc2)cc1)C(=O)NO
5. C[C@H](O)[C@H](NC(=O)c1ccc(C#C/C=C/c2ccc(CN3CCOCC3)cc2)cc1)C(=O)NO
6. CCNCc1ccc(C#Cc2ccc(C(=O)N[C@H](C(=O)NO)[C@@H](C)N)cc2)cc1

(A)
< 2 µg/mL
16 to 64 µg/mL
16 to 64 µg/mL
16 to 64 µg/mL
2 to 16 µg/mL
16 to 64 µg/mL

* * *

So I've got a bunch of molecules here, and I need their MIC values.
System: AECO001 (ATCC25922)
assay: MIC broth microdilution, AECO001
Format: cell-based, E. coli
experimental.context: Escherichia coli, ATCC25922, read-out: MIC AECO001

CC(C)[C@H](NC(=O)c1ccc(C#C/C=C/c2ccc(CN3CCOCC3)cc2)cc1)C(=O)NO [Example 96-3] = < 2 µg/mL
CO[C@H](C)[C@H](NC(=O)c1ccc(C#C/C=C/c2ccc(CN3CCOCC3)cc2)cc1)C(=O)NO [Example 97-1] = < 2 µg/mL
C[C@@H](N)[C@H](NC(=O)c1ccc(C#CC(O)c2ccc(CO)cc2)cc1)C(=O)NO (stereo partly shown) [Example 137-18] = 16 to 64 µg/mL
C[C@@H](N)[C@H](NC(=O)c1ccc(C#CC#Cc2cccs2)cc1)C(=O)NO [Example 88-12] = < 2 µg/mL
CCCC#CC#Cc1ccc(C(=O)N[C@H](C(=O)NO)C(C)(C)N)cc1 [Example 91-9] = < 2 µg/mL

Kindly give each listed record's MIC.
1. C[C@@H](NCC(=O)N[C@H](C)[C@H](NC(=O)c1ccc(C#C/C=C/c2ccccc2)cc1)C(=O)NO)c1ccccc1 [Example 105-5]
2. C[C@@H](O)[C@H](NC(=O)c1ccc(/C=C\C#Cc2ccc(CN3CCOCC3)cc2)cc1)C(=O)NO [Example 30-12b]
3. C[C@@H](N)[C@H](NC(=O)c1ccc(/C=C/C#Cc2ccc(Cl)cc2)cc1)C(=O)NO [Example 114-10]
4. NC[C@H](NC(=O)C#Cc1ccc(C#CCN2CCOCC2)cc1)C(=O)NO [Example 137-10]

(A)
["2 to 16 µg/mL", "2 to 16 µg/mL", "< 2 µg/mL", "> 64 µg/mL"]

Kindly give each listed record's MIC.
1. Cn1cc(C#CC#Cc2ccc(C(=O)N[C@H](C(=O)NO)C(C)(C)O)cc2)cn1 [Example 89-3]
2. CCNCc1ccc(C#Cc2ccc(C(=O)N[C@H](C(=O)NO)[C@@H](C)N)cc2)cc1 [Example 119-6]
3. CC(C)(O)[C@H](NC(=O)c1ccc(C#CC#Cc2ccc(N)cc2)cc1)C(=O)NO [Example 82-17]
4. C[C@@H](N)[C@H](NC(=O)c1ccc(C#CC#Cc2ccccn2)cc1)C(=O)NO [Example 88-4]
5. C[C@@H](O)[C@H](NC(=O)c1ccc(/C=C/C#Cc2ccc(F)cc2)cc1)C(=O)NO [Example 114-11]
6. C[C@@H](O)[C@H](NC(=O)c1ccc(C#C/C=C/C2CC2)cc1)C(=O)NO [Example 107-3]

(A)
1. < 2 µg/mL
2. 2 to 16 µg/mL
3. < 2 µg/mL
4. 2 to 16 µg/mL
5. < 2 µg/mL
6. < 2 µg/mL

Kindly give each listed record's MIC.
1. CCOCc1ccc(C#Cc2ccc(C(=O)N[C@H](C(=O)NO)[C@@H](C)N)cc2)cc1 [Example 120-1]
2. C[C@@H](N)[C@H](NC(=O)c1ccc(C#CC#Cc2cccc(Cl)c2)cc1)C(=O)NO [Example 82-9]

(A)
1. < 2 µg/mL
2. < 2 µg/mL

* * *

System: AABA1060 (clinical isolate of Acinetobacter baumannii)
assay: MIC broth microdilution, AABA1060
Type: cell-based
experimental.context: Acinetobacter baumannii, read-out: MIC AABA1060
Experimental: Bacterial isolates were cultivated from −70° C. frozen stocks by overnight passages at 35° C. in ambient air on Mueller-Hinton agar (Beckton Dickinson, Franklin Lakes, N.J.). […] Minimum Inhibitory Concentrations (MICs) were determined by the broth microdilution method in accordance with the Clinical and Laboratory Standards Institute (CLSI) guidelines. […]
So I've got a bunch of compounds here, and I need their MIC values.

Take a look at these entries with their results.
C[C@@H](O)[C@H](NC(=O)c1ccc(C#CC#Cc2ccc(C(F)(F)F)cc2)cc1)C(=O)NO [Example 82-6] = 16 to 64 µg/mL
NC[C@H](NC(=O)c1ccc(C#C/C=C/c2ccccc2)cc1)C(=O)NO [Example 104-2] = 16 to 64 µg/mL
C[C@@H](N)[C@H](NC(=O)c1ccc(C#CC(O)c2ccccc2)cc1)C(=O)NO (some centres unmarked) [Example 137-20] = 2 to 16 µg/mL
C[C@@H](N)[C@H](NC(=O)c1ccc(/C=C/C#CC2CCCCC2)cc1)C(=O)NO [Example 114-17] = 2 to 16 µg/mL

Kindly give each listed record's MIC.
1. CC(C)(O)[C@H](NC(=O)c1ccc(C#CC#Cc2ccsc2)cc1)C(=O)NO [Example 88-14]
2. O=C(CNC1CC1)NC[C@H](NC(=O)c1ccc(C#Cc2ccccc2)cc1)C(=O)NO [Example 132-1]
3. C[C@@H](N)[C@H](NC(=O)c1ccc(C#CC#C[C@H](C)N2CCOCC2)cc1)C(=O)NO [Example 92-2]

(A)
["< 2 µg/mL", "2 to 16 µg/mL", "16 to 64 µg/mL"]

get_value(item= CC(C)(N)[C@H](NC(=O)c1ccc(C#CC#Cc2ccc(F)cc2)cc1)C(=O)NO [Example 82-28] , readout=MIC) returns < 2 µg/mL

* * *

System: AECO001 (ATCC25922)
assay: MIC broth microdilution, AECO001
Type: cell-based, E. coli
experimental.context: Escherichia coli, ATCC25922, read-out: MIC AECO001
So I've got a bunch of compounds here, and I need their MIC values.

Take a look at these entries with their results.
O=C(NO)[C@@H]1CCCN1S(=O)(=O)c1ccc(C#Cc2ccc(CN3CCOCC3)cc2)cc1 = 2 to 16 µg/mL
C[C@@H](N)[C@H](NC(=O)c1ccc(C#CC#CC2CCCC2)cc1)C(=O)NO = < 2 µg/mL
C[C@@H](O)[C@H](NC(=O)c1ccc(/C=C/C#Cc2cccnc2)cc1)C(=O)NO = < 2 µg/mL

Next up:
get_value(item= CC(C)(O)[C@H](NC(=O)c1ccc(C#C/C=C/c2ccc(F)cc2)cc1)C(=O)NO , readout=MIC) returns < 2 µg/mL

* * *

System: APAE001 (ATCC27853)
assay: MIC broth microdilution, APAE001
Type: cell-based, P. aeruginosa
experimental.context: Pseudomonas aeruginosa, ATCC27853, read-out: MIC APAE001, APAE001 is ATCC27853
So I've got a bunch of molecules here, and I need their MIC values.

O=C(NC(C(=O)NO)C(F)(F)F)c1ccc(/C=C/C#Cc2ccc(CN3CCOCC3)cc2)cc1 (stereo not drawn) = 2 to 16 µg/mL
NC[C@H](NC(=O)c1ccc(C#CC#Cc2ccc(CO)cc2)cc1)C(=O)NO = < 2 µg/mL
C[C@@H](N)[C@H](NC(=O)c1ccc(/C=C/C#Cc2ccc(OC(F)(F)F)cc2)cc1)C(=O)NO = 2 to 16 µg/mL

Kindly give each listed record's MIC.
1. CC(C)(O)[C@H](NC(=O)c1ccc(/C=C/C#Cc2ccc(CNC3CC3)cc2)cc1)C(=O)NO
2. C[C@@H](O)[C@H](NC(=O)c1ccc(/C=C\C#Cc2ccc(CN3CCOCC3)cc2)cc1)C(=O)NO [Example 30-12b]
3. CC(C)(N)C(NC(=O)c1ccc(C#Cc2ccc(CO)cc2)cc1)C(=O)NO (stereo not drawn)
4. CC(C)(O)[C@H](NC(=O)c1ccc(/C=C/C#Cc2ccc(CN3CCOCC3)cc2)cc1)C(=O)NO
5. C[C@@H](O)[C@H](NC(=O)c1ccc(C#CC#Cc2ccc(CO)cc2)cc1)C(=O)NO
6. C[C@@H](O)[C@H](NC(=O)c1ccc(C#C/C=C/c2ccc(CN3CCOCC3)cc2)cc1)C(=O)NO

(A)
< 2 µg/mL
2 to 16 µg/mL
< 2 µg/mL
2 to 16 µg/mL
< 2 µg/mL
2 to 16 µg/mL

Cited source for all entries: patent US9617256B2
